- assayed_target: Cytochrome P450 3A4 (Homo sapiens)
- Sequence (P08684 whole entry): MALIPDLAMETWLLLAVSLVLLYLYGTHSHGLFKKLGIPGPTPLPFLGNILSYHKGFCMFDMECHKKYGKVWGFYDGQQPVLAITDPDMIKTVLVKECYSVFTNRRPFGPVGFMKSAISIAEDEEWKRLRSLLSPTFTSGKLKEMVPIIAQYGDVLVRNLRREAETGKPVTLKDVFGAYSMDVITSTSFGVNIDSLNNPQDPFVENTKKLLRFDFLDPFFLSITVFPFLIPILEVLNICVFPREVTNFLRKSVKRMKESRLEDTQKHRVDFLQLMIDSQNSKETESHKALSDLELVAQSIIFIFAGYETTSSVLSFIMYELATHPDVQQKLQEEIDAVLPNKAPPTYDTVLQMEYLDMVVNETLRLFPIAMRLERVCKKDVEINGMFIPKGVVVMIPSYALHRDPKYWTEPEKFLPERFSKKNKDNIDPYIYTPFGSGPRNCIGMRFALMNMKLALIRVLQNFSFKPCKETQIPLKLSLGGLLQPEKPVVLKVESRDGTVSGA
pIC50: −log10 of the molar value.
measured_attribute: pIC50

QUERY: Missing value: pIC50, Cytochrome P450 3A4 (Homo sapiens), entry CNC(=O)N1CCN(Cc2ccnc(Nc3ncc(C#N)s3)c2C)CC1 . Fill in?
RESULT: < 4.00

----------
- assayed_target: Vascular endothelial growth factor receptor 2 (Homo sapiens, UniProt P35968)
- Sequence (P35968 whole entry): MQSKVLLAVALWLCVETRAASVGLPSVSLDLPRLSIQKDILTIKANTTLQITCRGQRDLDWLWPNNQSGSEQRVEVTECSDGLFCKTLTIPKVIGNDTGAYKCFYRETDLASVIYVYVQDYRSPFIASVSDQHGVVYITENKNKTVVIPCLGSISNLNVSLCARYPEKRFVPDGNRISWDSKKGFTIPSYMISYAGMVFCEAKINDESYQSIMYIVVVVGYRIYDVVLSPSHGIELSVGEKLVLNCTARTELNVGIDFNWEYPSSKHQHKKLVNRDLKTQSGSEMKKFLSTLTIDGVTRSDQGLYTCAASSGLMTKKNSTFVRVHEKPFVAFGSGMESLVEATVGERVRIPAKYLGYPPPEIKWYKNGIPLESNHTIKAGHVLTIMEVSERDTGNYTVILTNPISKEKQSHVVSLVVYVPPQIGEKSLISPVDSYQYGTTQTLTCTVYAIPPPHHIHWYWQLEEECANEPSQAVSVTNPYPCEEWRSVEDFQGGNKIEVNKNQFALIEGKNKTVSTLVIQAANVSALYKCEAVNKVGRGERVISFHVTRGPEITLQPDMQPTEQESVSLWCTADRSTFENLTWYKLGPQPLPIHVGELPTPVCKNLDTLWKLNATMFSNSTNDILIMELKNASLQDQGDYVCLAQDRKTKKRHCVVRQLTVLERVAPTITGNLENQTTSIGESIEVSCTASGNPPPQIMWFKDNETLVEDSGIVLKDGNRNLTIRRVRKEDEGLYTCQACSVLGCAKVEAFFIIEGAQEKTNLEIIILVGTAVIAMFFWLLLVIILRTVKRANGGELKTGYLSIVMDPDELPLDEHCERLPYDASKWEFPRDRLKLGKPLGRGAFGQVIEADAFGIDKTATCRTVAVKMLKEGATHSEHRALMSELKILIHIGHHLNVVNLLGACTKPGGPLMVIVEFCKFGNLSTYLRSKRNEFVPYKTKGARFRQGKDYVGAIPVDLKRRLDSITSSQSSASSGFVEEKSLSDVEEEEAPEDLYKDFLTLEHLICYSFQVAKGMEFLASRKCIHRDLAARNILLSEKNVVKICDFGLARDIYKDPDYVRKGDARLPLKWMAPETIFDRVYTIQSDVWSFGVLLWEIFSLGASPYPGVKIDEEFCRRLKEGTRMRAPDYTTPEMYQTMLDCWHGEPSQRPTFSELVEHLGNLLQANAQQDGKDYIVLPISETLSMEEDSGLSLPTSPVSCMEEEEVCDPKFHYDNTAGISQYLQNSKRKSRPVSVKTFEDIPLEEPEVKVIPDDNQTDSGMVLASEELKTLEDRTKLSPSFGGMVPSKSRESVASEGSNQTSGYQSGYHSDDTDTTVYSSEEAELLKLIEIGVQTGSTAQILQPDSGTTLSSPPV
- protocol: Inhibition of VEGF-induced KDR autophosphorylation expressed in HEK293 cells
- Format: functional, cell-based
Hi! Could you tag entries with IC50 below 40 nM as 1, and those at or above as -1? Much appreciated.

- smi: "c1ccc(-c2cnc(Nc3cc(CN4CCCC4)ccn3)s2)cc1"
  assayed_target: "Vascular endothelial growth factor receptor 2 (Homo sapiens, UniProt P35968)"
  class_assignment: 1
- smi: "N#Cc1cnc(Nc2cc(CN3CCOCC3)ccn2)s1"
  assayed_target: "Vascular endothelial growth factor receptor 2 (Homo sapiens, UniProt P35968)"
  class_assignment: -1
- smi: "N#Cc1cnc(Nc2cc(CN3CCN(C(=O)CO)CC3)ccn2)s1"
  assayed_target: "Vascular endothelial growth factor receptor 2 (Homo sapiens, UniProt P35968)"
  class_assignment: 1
- smi: "CC(=O)N1CCN(Cc2ccnc(Nc3ncc(-c4ccccc4)s3)c2)CC1"
  assayed_target: "Vascular endothelial growth factor receptor 2 (Homo sapiens, UniProt P35968)"
  class_assignment: -1
- smi: "CNC(=O)N1CCN(Cc2ccnc(Nc3ncc(C#N)s3)c2)CC1"
  assayed_target: "Vascular endothelial growth factor receptor 2 (Homo sapiens, UniProt P35968)"
  class_assignment: 1

Now consider a different molecule.
QUERY: Confirm or reject: IC50 of CS(=O)(=O)C1CCN(Cc2ccnc(Nc3ncc(C#N)s3)c2)CC1 lies strictly below 40 nM
RESULT: 1

----------
- assayed_target: UniProt:P11712
- Sequence (P11712 whole entry): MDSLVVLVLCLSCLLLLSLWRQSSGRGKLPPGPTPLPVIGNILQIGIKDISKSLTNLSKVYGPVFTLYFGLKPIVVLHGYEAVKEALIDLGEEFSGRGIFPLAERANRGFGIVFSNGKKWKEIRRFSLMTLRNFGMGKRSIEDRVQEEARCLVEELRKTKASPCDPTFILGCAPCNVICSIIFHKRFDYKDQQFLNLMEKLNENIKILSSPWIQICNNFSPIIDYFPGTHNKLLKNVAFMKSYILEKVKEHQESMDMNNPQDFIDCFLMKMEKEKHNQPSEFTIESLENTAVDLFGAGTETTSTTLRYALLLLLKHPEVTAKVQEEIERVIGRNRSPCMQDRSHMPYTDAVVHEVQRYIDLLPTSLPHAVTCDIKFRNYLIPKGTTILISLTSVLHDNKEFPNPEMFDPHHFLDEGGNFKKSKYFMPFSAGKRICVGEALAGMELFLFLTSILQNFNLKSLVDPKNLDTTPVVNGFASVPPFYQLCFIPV
measured_attribute: IC50

QUERY: So what does the record say about IC50 for CNC(=O)N1CCN(Cc2ccnc(Nc3ncc(C#N)s3)c2C)CC1 ?
RESULT: > 100 µM

----------
- protocol: Bioavailability in Beagle dog at 1 mg/kg, iv and 1 mg/kg, po
- Assay type: ADME, organism-based, Canis lupus familiaris
- run_parameters: in vivo
measured_attribute: bioavailability (%)
Answers are plain numbers, in %.

Answered cases to consult:
- smi: "CS(=O)(=O)C1CCN(Cc2ccnc(Nc3ncc(C#N)s3)c2)CC1"
  experimental_result: 95
- smi: "N#Cc1cnc(Nc2cc(CN3CCN(C(=O)CO)CC3)ccn2)s1"
  experimental_result: 61
- smi: "CNC(=O)N1CCN(Cc2ccnc(Nc3ncc(C#N)s3)c2)CC1"
  experimental_result: 99

Please look at the following compound next.
QUERY: Need bioavailability of CC(=O)N1CCN(Cc2ccnc(Nc3ncc(C#N)s3)c2)CC1 , thanks.
RESULT: 87

----------
- assayed_target: Voltage-gated inwardly rectifying potassium channel KCNH2 (Homo sapiens, UniProt Q12809)
- Sequence (Q12809 whole entry): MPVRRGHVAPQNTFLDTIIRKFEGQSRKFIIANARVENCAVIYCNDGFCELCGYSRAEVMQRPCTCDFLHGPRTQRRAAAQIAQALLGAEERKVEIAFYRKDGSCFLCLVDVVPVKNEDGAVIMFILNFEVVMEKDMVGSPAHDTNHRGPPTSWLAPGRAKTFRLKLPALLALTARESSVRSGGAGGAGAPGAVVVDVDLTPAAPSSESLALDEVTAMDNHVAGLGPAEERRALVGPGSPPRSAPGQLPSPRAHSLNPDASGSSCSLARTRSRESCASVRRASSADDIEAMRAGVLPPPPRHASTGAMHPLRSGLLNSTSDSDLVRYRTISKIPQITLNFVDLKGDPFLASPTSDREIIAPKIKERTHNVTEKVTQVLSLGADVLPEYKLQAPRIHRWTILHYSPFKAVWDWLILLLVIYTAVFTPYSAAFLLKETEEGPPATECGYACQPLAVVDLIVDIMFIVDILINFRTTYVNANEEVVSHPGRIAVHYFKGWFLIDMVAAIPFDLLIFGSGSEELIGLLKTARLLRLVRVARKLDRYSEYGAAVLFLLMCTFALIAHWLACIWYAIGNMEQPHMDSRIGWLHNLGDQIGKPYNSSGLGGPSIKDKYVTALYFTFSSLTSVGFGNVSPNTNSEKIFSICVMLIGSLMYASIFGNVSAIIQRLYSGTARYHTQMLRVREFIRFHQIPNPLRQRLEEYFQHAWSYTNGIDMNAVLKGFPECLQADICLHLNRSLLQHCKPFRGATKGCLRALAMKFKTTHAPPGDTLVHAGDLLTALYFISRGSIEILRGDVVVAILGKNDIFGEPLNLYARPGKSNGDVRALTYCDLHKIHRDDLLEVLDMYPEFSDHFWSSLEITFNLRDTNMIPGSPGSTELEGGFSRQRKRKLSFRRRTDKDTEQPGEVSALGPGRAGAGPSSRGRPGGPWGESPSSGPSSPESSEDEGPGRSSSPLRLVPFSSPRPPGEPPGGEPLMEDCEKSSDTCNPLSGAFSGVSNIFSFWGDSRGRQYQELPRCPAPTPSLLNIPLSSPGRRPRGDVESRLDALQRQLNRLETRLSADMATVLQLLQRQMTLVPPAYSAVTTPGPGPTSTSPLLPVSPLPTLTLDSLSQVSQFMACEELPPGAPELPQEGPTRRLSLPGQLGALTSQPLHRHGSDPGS
- protocol: Displacement of [35S][…] from human ERG expressed in HEK293 cells
- run_parameters: read-out: Inflection point
measured_attribute: log10(IC50) (log10 of the value in µM)
A difference of one corresponds to tenfold IC50; all values are log10 with IC50 in µM.

// known answers, use as guide
- smi: "CS(=O)(=O)N1CCN(Cc2ccnc(Nc3ncc(-c4ccccc4)s3)c2)CC1"
  log10(IC50): -0.89
- smi: "CN(C)C(=O)N1CCN(Cc2ccnc(Nc3ncc(C#N)s3)c2)CC1"
  log10(IC50): 0.55
- smi: "N#Cc1cnc(Nc2cc(CN3CCN(C(N)=O)CC3)ccn2)s1"
  log10(IC50): 1.39
- smi: "CC(=O)N1CCN(Cc2ccnc(Nc3ncc(-c4ccccc4)s3)c2)CC1"
  log10(IC50): -0.62

# return log10(IC50) for each item in the list
1. N#Cc1cnc(Nc2cc(CN3CCN(C(=O)CO)CC3)ccn2)s1
2. CNC(=O)N1CCN(Cc2ccnc(Nc3ncc(C#N)s3)c2)CC1
3. c1ccc(-c2cnc(Nc3ccc(CN4CCCC4)cn3)s2)cc1

RESULT:
0.99
0.97
-2.10

----------
- protocol: Clearance in Beagle dog at 0.25 mg/kg, iv and 1 mg/kg, po
- Type: ADME, organism-based, Canis lupus familiaris
- run_parameters: in vivo
measured_attribute: clearance (mL/min/kg)
Numbers only, in mL/min/kg.

Below, each entry is followed by its recorded clearance result.
- smi: "N#Cc1cnc(Nc2cc(CN3CCOCC3)ccn2)s1"
  clearance / mL/min/kg: 12.4
- smi: "CN(C)C(=O)N1CCN(Cc2ccnc(Nc3ncc(C#N)s3)c2)CC1"
  clearance / mL/min/kg: 7.4

QUERY: Which clearance is listed for N#Cc1cnc(Nc2cc(CN3CCN(C(N)=O)CC3)ccn2)s1 ?
RESULT: 2.6

----------
- protocol: Lipophilicity, log P of the compound
- Type: physicochemical
- run_parameters: octanol/water
Exercise: for every item that follows, state its recorded logP.
One number for each entry.

- smi: "CC(=O)N1CCN(Cc2ccnc(Nc3ncc(C#N)s3)c2)CC1"
  measured_attribute: "logP"
  experimental_result: 2.05
- smi: "CS(=O)(=O)C1CCN(Cc2ccnc(Nc3ncc(C#N)s3)c2)CC1"
  measured_attribute: "logP"
  experimental_result: 2.06
- smi: "CNC(=O)N1CCN(Cc2ccnc(Nc3ncc(C#N)s3)c2)CC1"
  measured_attribute: "logP"
  experimental_result: 2.06

Hi! Can you tell me logP for each of these compounds?
1. N#Cc1cnc(Nc2cc(CN3CCN(C(=O)CO)CC3)ccn2)s1
2. CN(C)C(=O)N1CCN(Cc2ccnc(Nc3ncc(C#N)s3)c2)CC1

RESULT:
1. 1.68
2. 2.74

----------
- protocol: Volume of distribution in rhesus monkey at 1 mg/kg, iv and 1 mg/kg, po
- Format: ADME, organism-based, Macaca mulatta
- run_parameters: in vivo, read-out: Vdss
measured_attribute: Vd

QUERY: // lookup Vd for CNC(=O)N1CCN(Cc2ccnc(Nc3ncc(C#N)s3)c2)CC1
RESULT: 1.3 L/kg

----------
- protocol: Volume of distribution in Sprague-Dawley rat at 2 mg/kg, iv and 10 mg/kg, po
- Format: ADME, organism-based
- run_parameters: in vivo, read-out: Vdss
measured_attribute: Vd (L/kg)
Give bare numbers, in L/kg.

QUERY: Need Vd, item CNC(=O)N1CCN(Cc2ccnc(Nc3ncc(C#N)s3)c2)CC1
RESULT: 1.5

----------
- protocol: Volume of distribution in Beagle dog at 1 mg/kg, iv and 1 mg/kg, po
- Type: ADME, organism-based, Canis lupus familiaris
- run_parameters: in vivo, read-out: Vdss
Kindly supply the reported Vd values for the records listed here.
One number for each entry, in L/kg.

Record excerpt, results attached:
- smi: "N#Cc1cnc(Nc2cc(CN3CCN(C(=O)CO)CC3)ccn2)s1"
  Vd [L/kg]: 0.47
- smi: "CC(=O)N1CCN(Cc2ccnc(Nc3ncc(C#N)s3)c2)CC1"
  Vd [L/kg]: 0.72
- smi: "CNC(=O)N1CCN(Cc2ccnc(Nc3ncc(C#N)s3)c2)CC1"
  Vd [L/kg]: 0.72

In the following, a different molecule is considered.
QUERY: Look up Vd: CS(=O)(=O)C1CCN(Cc2ccnc(Nc3ncc(C#N)s3)c2)CC1
RESULT: 0.96

----------
- protocol: Half life in Beagle dog at 0.25 mg/kg, iv and 1 mg/kg, po
- Assay type: ADME, organism-based, Canis lupus familiaris
- run_parameters: in vivo
Exercise: for every item that follows, state its recorded half-life.
Give bare numbers, in h.

Worked examples follow.
- smi: "CN(C)C(=O)N1CCN(Cc2ccnc(Nc3ncc(C#N)s3)c2)CC1"
  unit_label: "h"
  half-life: 2
- smi: "N#Cc1cnc(Nc2cc(CN3CCOCC3)ccn2)s1"
  unit_label: "h"
  half-life: 2.5

Kindly consider the entry below.
QUERY: Recorded half-life of N#Cc1cnc(Nc2cc(CN3CCN(C(N)=O)CC3)ccn2)s1 , please.
RESULT: 2.9

----------
- protocol: Bioavailability in rhesus monkey at 1 mg/kg, iv and 1 mg/kg, po
- Assay type: ADME, organism-based, Macaca mulatta
- run_parameters: in vivo
measured_attribute: bioavailability (%)
Give bare numbers, in %.

QUERY: Returns the measured bioavailability for the input compound. Input: CNC(=O)N1CCN(Cc2ccnc(Nc3ncc(C#N)s3)c2)CC1
RESULT: 43

----------
- protocol: Clearance in rhesus monkey at 1 mg/kg, iv and 1 mg/kg, po
- Type: ADME, organism-based, Macaca mulatta
- run_parameters: in vivo
measured_attribute: clearance (mL/min/kg)
One number for each entry, in mL/min/kg.

QUERY: Which clearance value belongs to CNC(=O)N1CCN(Cc2ccnc(Nc3ncc(C#N)s3)c2)CC1 ?
RESULT: 17.2

----------
- assayed_target: UniProt P35968
- protocol: Inhibition of KDR
Provide the recorded pIC50 for the entries that follow.
Numbers only, as −log10 of the molar value.

- smi: "CN(C)C(=O)N1CCN(Cc2ccnc(Nc3ncc(C#N)s3)c2)CC1"
  pIC50: 8.00
- smi: "CNC(=O)N1CCN(Cc2ccnc(Nc3ncc(C#N)s3)c2)CC1"
  pIC50: 7.92
- smi: "c1ccc(-c2cnc(Nc3cc(CN4CCCC4)ccn3)s2)cc1"
  pIC50: 8.52
- smi: "N#Cc1cnc(Nc2cc(CN3CCOCC3)ccn2)s1"
  pIC50: 8.10
- smi: "N#Cc1cnc(Nc2cc(CN3CCN(C(=O)CO)CC3)ccn2)s1"
  pIC50: 8.05

Working through the 3 compounds below one at a time, give pIC50 for each.
1. CC(=O)N1CCN(Cc2ccnc(Nc3ncc(-c4ccccc4)s3)c2)CC1
2. CS(=O)(=O)C1CCN(Cc2ccnc(Nc3ncc(C#N)s3)c2)CC1
3. CC(=O)N1CCN(Cc2ccnc(Nc3ncc(C#N)s3)c2)CC1

RESULT:
8.10
8.15
7.89
